# reported pIC50; entries follow
# Target Under Test: CCR(9) (Homo sapiens, UniProt P51686)
# Construct: CCR(9)-expressing cells such as T cell line MOLT-4 cells; host or cells: MOLT-4 cells
# Sequence (P51686 1-369): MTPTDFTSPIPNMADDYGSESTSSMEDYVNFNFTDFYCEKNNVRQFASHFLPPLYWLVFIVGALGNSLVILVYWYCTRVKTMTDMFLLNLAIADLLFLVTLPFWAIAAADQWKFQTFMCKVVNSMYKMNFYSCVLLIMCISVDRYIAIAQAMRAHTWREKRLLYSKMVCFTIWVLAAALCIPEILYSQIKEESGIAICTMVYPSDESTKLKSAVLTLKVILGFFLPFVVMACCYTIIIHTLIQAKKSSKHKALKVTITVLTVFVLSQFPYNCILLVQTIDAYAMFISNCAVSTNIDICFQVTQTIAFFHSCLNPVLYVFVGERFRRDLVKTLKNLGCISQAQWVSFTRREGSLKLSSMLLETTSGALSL
# Protocol: serum chemotaxis (migration) assay, MOLT-4 cells in human serum, TECK
# Assay type: cell-based
# Condition Description: read-out: A2
pIC50: −log10 of the molar value.

Solved entries:
Chemical Structure | Observed
Cc1cc(NS(=O)(=O)c2ccc(C(C)(C)C)cc2)n(-c2ccc(C#N)c3ncccc23)n1 | 5.60 to 6.30
Cc1cc(-n2nc(C)cc2NS(=O)(=O)c2ccc(C(C)(C)C)cc2)c2cccnc2c1 | 5.60 to 6.30
CC(C)c1ccc(S(=O)(=O)Nc2cc(C(F)(F)F)nn2-c2cccc3ncccc23)cc1 | 5.60 to 6.30
Cc1cc(NS(=O)(=O)c2ccc(C(C)(C)C)cc2)n(-c2nncc3ccccc23)n1 | 5.60 to 6.30
Cc1cc(NS(=O)(=O)c2ccc(C(C)(C)C)cc2)n(-c2ccc(C)c3ncccc23)n1 | 5.60 to 6.30

Consider now this further molecule.
API: value(readout= pIC50, system= CCR(9) (Homo sapiens, UniProt P51686), query= CCOc1ccc(-n2nc(C)cc2NS(=O)(=O)c2ccc(C(C)(C)C)cc2)c2cccnc12 ) 5.60 to 6.30

----------
# Target Under Test: CCR(9) (Homo sapiens)
# Construct: CCR(9)-expressing cells such as T cell line MOLT-4 cells; host or cells: MOLT-4 cells
# Protocol: calcium mobilization assay (FLIPR, MOLT-4 cells, hTECK)
# Type: cell-based
# Condition Description: read-out: CCR(9) Ca^2+
Reported Property: IC50

API: value(readout= IC50, system= CCR(9) (Homo sapiens), query= CCc1cc(NS(=O)(=O)c2ccc(C(C)(C)C)cc2)n(-c2cccc3ncccc23)n1 ) < 100 nM

Again, but for Cc1cc(NS(=O)(=O)c2ccc(C(C)(C)C)cc2Cl)n(-c2cccc3ncccc23)n1 < 100 nM

Again, but for Cc1cc(NS(=O)(=O)c2ccc(C(C)(C)C)cc2)n(-c2ccc3cccnc3c2)n1 < 100 nM

----------
# Target Under Test: CCR(9) (Homo sapiens, UniProt P51686)
# Construct: CCR(9)-expressing cells such as T cell line MOLT-4 cells; host or cells: MOLT-4 cells
# Protocol: serum chemotaxis (migration) assay, MOLT-4 cells in human serum, TECK
# Assay type: cell-based
# Condition Description: read-out: A2
# reported IC50; entries follow

Solved entries:
Chemical Structure | IC50
Cc1cc(NS(=O)(=O)c2ccc(C(C)C)cc2)n(-c2cccc3ncccc23)n1 | 501 to 2500 nM
Cc1cc(NS(=O)(=O)c2ccc(C(C)(C)C)cc2)n(-c2nccc3ccccc23)n1 | 501 to 2500 nM

Consider now this further molecule.
Give its IC50 value. Item: Cc1cc(-n2nc(C)cc2NS(=O)(=O)c2ccc(C(C)(C)C)cc2)c2ccccc2n1 501 to 2500 nM
